Molecular target: cloned human α1A receptor (Homo sapiens, UniProt P35348)
Sequence (P35348 1-466): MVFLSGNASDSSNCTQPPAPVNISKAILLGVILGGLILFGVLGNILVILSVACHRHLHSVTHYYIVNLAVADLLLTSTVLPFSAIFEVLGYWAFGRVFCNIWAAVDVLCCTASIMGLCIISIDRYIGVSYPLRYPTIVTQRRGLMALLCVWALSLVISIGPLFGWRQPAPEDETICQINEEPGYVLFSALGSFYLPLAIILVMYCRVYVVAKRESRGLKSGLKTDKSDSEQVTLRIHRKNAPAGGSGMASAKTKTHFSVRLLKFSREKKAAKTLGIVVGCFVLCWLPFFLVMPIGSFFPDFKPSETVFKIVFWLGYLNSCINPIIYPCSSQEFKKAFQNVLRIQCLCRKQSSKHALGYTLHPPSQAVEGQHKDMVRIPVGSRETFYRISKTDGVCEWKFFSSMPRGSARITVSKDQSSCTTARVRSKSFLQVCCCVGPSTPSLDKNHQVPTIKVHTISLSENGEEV
pKi: −log10 of the molar value.

# COMPOUND, pKi
data = [
    ("CC1(C)OC(=O)N(C(=O)NCC(O)CN2CCC(C#N)(c3ccccc3)CC2)C1c1ccc(F)c(F)c1.Cl (centres unmarked) [Example 28, Hydrochloride]", 9.15),
    ("COC(=O)C1(c2ccccc2)CCN(CCNC(=O)N2C(=O)OCC2c2ccc(F)c(F)c2)CC1 (centres unmarked) [Example 21]", 7.68),
]

// provenance: patent US6620815B1
